# Test system: Escherichia coli IAI1
# Test Protocol: fold change of Putrescine concentration vs plate DMSO controls (fold change (ratio)); higher = more amine produced, active = hit call of the paper (significant change in both replicates, either direction)
# Measurement Context: incubation time: 27 h, anaerobic, 37 °C
Counter-ions that a name gives are not always drawn.
Below: a set of entries, each annotated with reported fold change of Putrescine concentration.

// worked examples, fold change of Putrescine concentration included
molecule="C[C@]12C=CC(=O)C=C1CC[C@@H]1[C@@H]2C(=O)C[C@@]2(C)[C@H]1CC[C@]2(O)C(=O)CO [Prednisone] (20 µM)" result="1.07 (inactive)"
molecule="CC[N+](CC)(CC)CCOc1cccc(OCC[N+](CC)(CC)CC)c1OCC[N+](CC)(CC)CC [Gallamine triethiodide] (20 µM)" result="1.06 (inactive)"

Briefly, fold change of Putrescine concentration measured for CCCOc1ccccc1-c1nc2[nH]nnc2c(=O)[nH]1 [Zaprinast] (20 µM) : 0.969 (inactive)

Briefly, fold change of Putrescine concentration measured for COc1cc(N)cn[n+]1-c1ccccc1 [Amezinium metilsulfate] (20 µM) : 0.969 (inactive)

Briefly, fold change of Putrescine concentration measured for Nc1ccc(/N=N/c2ccccc2)c(N)n1 [Phenazopyridine hydrochloride] (20 µM) : 0.969 (inactive)

Briefly, fold change of Putrescine concentration measured for CCC(NC(C)C)C(O)c1ccc(O)c(O)c1 (configuration not stated) [Isoetharine mesylate salt] (20 µM) : 1.11 (inactive)

Briefly, fold change of Putrescine concentration measured for C[C@@H]1C[C@H]2[C@@H]3CCC4=CC(=O)C=C[C@]4(C)[C@@]3(Cl)[C@@H](O)C[C@]2(C)[C@@]1(OC(=O)c1ccco1)C(=O)CCl [Mometasone furoate] (20 µM) : 1.02 (inactive)
